Quick list: Kis (ES + I ⇌ ESI) per entry.
target: S. pombe lumazine synthase (recombinant homopentameric) (Schizosaccharomyces pombe); assay: Kinetic assay of lumazine synthase inhibitors, S. pombe enzyme; assay type: biochemical; details: substrate 2 constant, substrate 1 varied; Tris·HCl pH 7.0

O=c1[nH]c(OC[C@H](O)[C@H](O)[C@H](O)CO)c([N+](=O)[O-])c(=O)[nH]1 [Compound 22] : 110 ± 40 µM
Nc1c(OC[C@@H](O)[C@H](O)[C@@H](O)CO)[nH]c(=O)[nH]c1=O [Compound 29] : 43 ± 8 µM
COC(=O)C(=O)Nc1c(OC[C@H](O)[C@H](O)[C@H](O)CO)[nH]c(=O)[nH]c1=O [Compound 37] : 56 ± 15 µM

Attention now turns to another entry.
The measured Kis (ES + I ⇌ ESI) associated with CCOC(=O)C(=O)Nc1c(OC[C@H](O)[C@H](O)[C@H](O)CO)[nH]c(=O)[nH]c1=O [Compound 36] reads >1000 µM

* * *

target: M. tuberculosis riboflavin synthase (recombinant) (Mycobacterium tuberculosis); assay: Kinetic assay of riboflavin synthase inhibitors, M. tuberculosis enzyme; format: biochemical
Sequence (P9WK35 whole entry): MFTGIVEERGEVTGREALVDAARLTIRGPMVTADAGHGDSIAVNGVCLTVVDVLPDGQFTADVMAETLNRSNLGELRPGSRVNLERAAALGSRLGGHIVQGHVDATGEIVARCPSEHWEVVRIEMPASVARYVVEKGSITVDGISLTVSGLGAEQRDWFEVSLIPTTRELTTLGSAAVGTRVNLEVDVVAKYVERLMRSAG
readout type: Mechanism of inhibition

Nc1c(OC[C@@H](O)[C@H](O)[C@@H](O)CO)[nH]c(=O)[nH]c1=O : Uncompetitive
CC(Cl)C(=O)Nc1c(NC[C@H](O)[C@H](O)[C@H](O)CO)[nH]c(=O)[nH]c1=O (stereo partly shown) : Competitive
CC1(O)C(=O)Nc2c([nH]c(=O)[nH]c2=O)N1C[C@H](O)[C@H](O)[C@H](O)CO (stereo partly shown) : Competitive
CCC(=O)Nc1c(OC[C@H](O)[C@H](O)[C@H](O)CO)[nH]c(=O)[nH]c1=O : Uncompetitive

* * *

Molecular target: S. pombe lumazine synthase (recombinant homopentameric) (Schizosaccharomyces pombe, UniProt Q9UUB1)
Sequence (Q9UUB1 1-159): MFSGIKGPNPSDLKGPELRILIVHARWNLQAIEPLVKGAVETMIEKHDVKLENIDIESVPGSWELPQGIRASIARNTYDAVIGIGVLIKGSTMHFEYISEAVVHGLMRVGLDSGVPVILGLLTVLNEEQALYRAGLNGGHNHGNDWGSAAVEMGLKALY
Assay: Kinetic assay of lumazine synthase inhibitors, S. pombe enzyme
Format: biochemical
Settings: substrate 2 constant, substrate 1 varied; Tris·HCl pH 7.0
readout type: Kcat (rate constant ES → E + P) (m^−1)
Report as a plain number; the unit m^−1 is understood.

Some compounds with known Kcat (rate constant ES → E + P) results, for comparison:
Nc1c(OC[C@@H](O)[C@H](O)[C@@H](O)CO)[nH]c(=O)[nH]c1=O : 1.3
COC(=O)C(=O)Nc1c(OC[C@H](O)[C@H](O)[C@H](O)CO)[nH]c(=O)[nH]c1=O : 1.5
O=c1[nH]c(OC[C@H](O)[C@H](O)[C@H](O)CO)c([N+](=O)[O-])c(=O)[nH]1 : 1.4

// next item, Kcat (rate constant ES → E + P) requested
Lookup result for CCOC(=O)C(=O)Nc1c(OC[C@H](O)[C@H](O)[C@H](O)CO)[nH]c(=O)[nH]c1=O ; measured Kcat (rate constant ES → E + P): 2.7

* * *

biological target: E. coli riboflavin synthase (recombinant) (Escherichia coli); assay: Kinetic assay of riboflavin synthase inhibitors, E. coli enzyme; type: biochemical; details: substrate 3 varied; Tris·HCl pH 7.0
Sequence (P0AFU8 whole entry): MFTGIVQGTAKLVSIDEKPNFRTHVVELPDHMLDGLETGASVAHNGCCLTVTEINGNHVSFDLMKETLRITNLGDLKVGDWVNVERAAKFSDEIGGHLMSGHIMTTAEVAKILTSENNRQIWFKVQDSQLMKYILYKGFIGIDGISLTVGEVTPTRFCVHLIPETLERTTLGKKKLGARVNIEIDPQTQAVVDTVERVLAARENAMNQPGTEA
# Kcat (rate constant ES → E + P) per entry
Answer format: numeric, m^−1 implied, no suffix.

The cases that follow already have their Kcat (rate constant ES → E + P) on record.
O=c1[nH]c(OC[C@H](O)[C@H](O)[C@H](O)CO)c([N+](=O)[O-])c(=O)[nH]1 : 3.3
Nc1c(OC[C@@H](O)[C@H](O)[C@@H](O)CO)[nH]c(=O)[nH]c1=O : 3.2
CCOC(=O)C(=O)Nc1c(OC[C@H](O)[C@H](O)[C@H](O)CO)[nH]c(=O)[nH]c1=O : 5.8

For the next question, use this compound.
Input COC(=O)C(=O)Nc1c(OC[C@H](O)[C@H](O)[C@H](O)CO)[nH]c(=O)[nH]c1=O . Output Kcat (rate constant ES → E + P): 3.4
